assay: Solubility in organic solvents; type: physicochemical; details: DMSO; Table 4.3
Label criterion met when Solubility in DMSO is at or above 10 mM; otherwise label criterion not met.

Is reported Solubility in DMSO greater than or equal to 10 mM here: CCCCn1c2c(c(CCC)cc1=O)C(=O)c1c(CCC)cc(=O)[nH]c1C2=O [Compound 4-28]
criterion not met

Is reported Solubility in DMSO greater than or equal to 10 mM here: CCc1cc(=O)[nH]c2c1C(=O)c1c(CC)cc(=O)n(C)c1C2=O [Compound 4-29]
criterion met

Is reported Solubility in DMSO greater than or equal to 10 mM here: CCc1cc(=O)n(C)c2c1C(=O)c1c(C)cc(=O)[nH]c1C2=O [Compound 107]
criterion met

Is reported Solubility in DMSO greater than or equal to 10 mM here: Cc1cc(=O)[nH]c2c1C(=O)c1c(C)cc(=O)n(CCC(C)(C)C)c1C2=O [Compound 9-251]
criterion met

Is reported Solubility in DMSO greater than or equal to 10 mM here: CCCCCn1c2c(c(C)cc1=O)C(=O)c1c(C)cc(=O)[nH]c1C2=O [Compound 9-255]
criterion met

====

test system: MCF-7 cells; assay: Cytotoxicity to MCF-7 cells with or without 25 μM dicoumarol (sulforhodamine B assay); type: cell-based, human; details: Homo sapiens, MCF7, Table 4.2; no DIC; ± s.e.; read-out: IC50 vs. MCF-7 cells
I'd appreciate it if you could supply IC50 values for the items below.
Answers are plain numbers, in nM.

1) Cc1cc(=O)[nH]c2c1C(=O)c1c(C)cc(=O)n(CCC(C)(C)C)c1C2=O = 220

Provide the reported IC50 of each entry below, same order.
1. Cc1cc(=O)[nH]c2c1C(=O)c1c(C)cc(=O)n(C3CCCCCCC3)c1C2=O
2. CCCCCCCn1c2c(c(C)cc1=O)C(=O)c1c(C)cc(=O)[nH]c1C2=O
3. CCCCn1c2c(c(C)cc1=O)C(=O)c1c(C)cc(=O)[nH]c1C2=O
4. Cc1cc(=O)[nH]c2c1C(=O)c1c(C)cc(=O)n(CCC(C)C)c1C2=O
5. CCCCn1c2c(c(CCC)cc1=O)C(=O)c1c(C)cc(=O)[nH]c1C2=O

1. 830
2. 420
3. 270
4. 180
5. 770

====

test: Solubility in organic solvents; assay type: physicochemical; conditions: DMSO; Table 4.3
Label yes (1) when Solubility in DMSO is at or above 4 mM; otherwise label no (0).

Examples with answers:
1. CCCc1cc(=O)[nH]c2c1C(=O)c1c(C)cc(=O)n(C)c1C2=O [Compound 4-12] = yes (1)
2. CCCCn1c2c(c(C)cc1=O)C(=O)c1c(C)cc(=O)[nH]c1C2=O [Compound 4-22] = yes (1)
3. Cc1cc(=O)[nH]c2c1C(=O)c1c(C)cc(=O)n(CCCO)c1C2=O [Compound 9-281] = yes (1)

Is reported Solubility in DMSO greater than or equal to 4 mM here: Cc1cc(=O)[nH]c2c1C(=O)c1c(C)cc(=O)n(C)c1C2=O [DNQ, Deoxynyboquinone, reference compound]
no (0)

Is reported Solubility in DMSO greater than or equal to 4 mM here: CCCn1c2c(c(C)cc1=O)C(=O)c1c(C)cc(=O)[nH]c1C2=O [Compound 10-41]
yes (1)

Is reported Solubility in DMSO greater than or equal to 4 mM here: CCn1c2c(c(C)cc1=O)C(=O)c1c(C)cc(=O)[nH]c1C2=O [Compound 109]
yes (1)
